- Tested on: mice
- PROTOCOL DESCRIPTION: Peripheral anti-nociception, acetic acid-induced writhing
- Type: in vivo, Mus musculus
- ASSAY CONTEXT: 25 mg/kg; counted for 15 min; n = 5
ATTRIBUTE MEASURED: Number of Writhing (Mean ± SEM)
Give bare numbers.

Record excerpt, results attached:
INPUT SMILES: c1ccc(COCc2nc3ccccc3[nH]2)cc1
NUMBER: 16.7
//
INPUT SMILES: Clc1ccc(-c2nc3ccccc3[nH]2)cc1
NUMBER: 26.0
//
INPUT SMILES: COc1ccc(Cn2c(-c3ccc(OC)cc3)nc3ccccc32)cc1
NUMBER: 12.3
//
INPUT SMILES: Oc1ccc(Cn2c(-c3ccc(O)cc3)nc3ccccc32)cc1
NUMBER: 13.6

Proceed to the following item.
Recorded Number of Writhing (Mean ± SEM) for Clc1ccc(Cn2c(-c3ccc(Cl)cc3)nc3ccccc32)cc1 , please?
19.6
